- ASSAYED SYSTEM: T1, Human VEGFR1/FLT-1 protein (Fc tag) (human, UniProt P17948 27-758)
- T1 construct: human VEGFR1/FLT-1, recombinant protein with Fc tag, Sino Biological 10136-H02H; Check the vendor's data sheet; source: bought: Sino Biological
- T1 sequence (P17948 27-758): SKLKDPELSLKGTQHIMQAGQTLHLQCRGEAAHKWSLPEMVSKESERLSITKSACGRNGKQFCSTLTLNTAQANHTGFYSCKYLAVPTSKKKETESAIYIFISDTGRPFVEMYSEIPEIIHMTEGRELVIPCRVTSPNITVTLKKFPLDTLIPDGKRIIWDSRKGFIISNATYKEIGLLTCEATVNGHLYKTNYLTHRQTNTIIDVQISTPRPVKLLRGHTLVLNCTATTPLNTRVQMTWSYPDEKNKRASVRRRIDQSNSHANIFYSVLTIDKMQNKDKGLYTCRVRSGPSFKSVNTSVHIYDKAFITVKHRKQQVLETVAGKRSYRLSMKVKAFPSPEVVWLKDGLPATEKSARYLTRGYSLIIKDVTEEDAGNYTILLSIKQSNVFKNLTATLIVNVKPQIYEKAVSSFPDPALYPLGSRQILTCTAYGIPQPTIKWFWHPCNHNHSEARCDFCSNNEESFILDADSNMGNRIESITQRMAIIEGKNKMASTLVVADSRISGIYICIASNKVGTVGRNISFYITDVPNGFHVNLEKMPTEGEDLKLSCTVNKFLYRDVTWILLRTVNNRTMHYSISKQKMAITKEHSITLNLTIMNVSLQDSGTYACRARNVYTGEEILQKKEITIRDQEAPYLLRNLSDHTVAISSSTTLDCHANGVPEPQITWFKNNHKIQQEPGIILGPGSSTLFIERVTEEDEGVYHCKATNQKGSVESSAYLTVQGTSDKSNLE
- ASSAY OVERVIEW: MST; protein in a series of gradient dilutions, an equal amount of labeled CP7 peptide added; PBS with 0.05% Tween-20; glass capillary; room temperature; Monolith NT.115
- CONDITION: both partners purified
Where no end group is shown, it is not given here.
ATTRIBUTE MEASURED: Kd

Name the recorded Kd for CIQPFYP (also: labelled, label not named, novel peptide designed and screened by the authors' group; The methods of the MST say only 'the labeled peptide'; source: synthetic peptide: Shanghai GL Biochem Peptide Ltd) [CP7 peptide (CIQPFYP)] . 66.1 nM

This collection of values is drawn from paper PMC9369135.
